Reported TGI by item:
- System: NCI-H226 lung
- ASSAY TEXT: NCI tumour cell line growth inhibition, 48 h

molecule=C=C(Cl)CN1c2ccccc2C=Cc2ccccc21 target="NCI-H226 lung" result="70.2 µM"
molecule=Cc1ccc(C)c(NC(=O)C(=O)Nn2c(=S)[nH]c3ccccc3c2=O)c1 target="NCI-H226 lung" result="> 100 µM"
molecule=COc1cc(CCc2ccncc2)cc(OC)c1OC target="NCI-H226 lung" result="> 100 µM"
molecule=O=C(NNc1nc(-c2ccccc2)cs1)Nc1ccccc1 target="NCI-H226 lung" result="46.5 µM"
molecule=Cc1ccc(S(=O)(=O)N/N=C\c2c3ccccc3[n+](C)c3ccccc23)cc1 target="NCI-H226 lung" result="60.1 µM"
molecule=O=C1/C(=C/c2ccc(O)cc2)Oc2ccccc21 target="NCI-H226 lung" result="> 100 µM"

Task: Read off the recorded TGI for OCC(S)CS.[Bi] (stereo unspecified)
Result: > 100 µM

Task: Read off the recorded TGI for CC(C)(C)CC(C)(C)NCC(O)COc1ccc(C(C)(C)c2ccc(OCC(O)CNC(C)(C)CC(C)(C)C)cc2)cc1 (stereo unspecified)
Result: 3.51 µM

Task: Read off the recorded TGI for Nc1ccn(CC(O)c2cc3ccccc3[nH]2)c(=O)n1 (stereo unspecified)
Result: > 100 µM

Task: Read off the recorded TGI for CN(C)C(=S)/N=c1\ss/c(=N\S(=O)(=O)c2ccccc2)n1C
Result: > 100 µM

Task: Read off the recorded TGI for C[C@H]1CC[C@@H]2[C@@H](C)[C@H]3[C@H](C[C@H]4[C@@H]5CC=C6C[C@@H](O)CC[C@]6(C)[C@H]5CC[C@]34C)N2C1
Result: > 100 µM
